Tested on: IGROV-1
measurement-notes: NCI tumour cell line growth inhibition, 48 h
The source made the active and inactive calls. No stated cut-off is given here; in the data, active = GI50 up to about 1.1 µM and inactive = higher.

{"columns": ["molecule", "measured-on", "GI50"],
 "data": [
  ["CC(Br)CN1CCOCC1 (stereo not drawn)", "IGROV-1", "> 100 µM (inactive)"],
  ["N#Cc1c(N)c2c(c(-c3ccccc3)c1-c1ccccc1)C(=O)N(NC(=O)c1ccccc1)C2=O", "IGROV-1", "61.4 µM (inactive)"],
  ["CCOC(=O)CNc1nc(=O)c2c(=O)oc(Cl)cc2o1", "IGROV-1", "10.1 µM (inactive)"],
  ["COc1cc(/C=C2\\NC(=S)C3Cc4c(OC)c(C)c(OC)c(OC)c4C2N3C)c(OC)c(C)c1OC (stereo not drawn)", "IGROV-1", "> 100 µM (inactive)"],
  ["C/C(=N\\NC(C)(C)C)c1sc(-c2nc(C)c(/C(C)=N/NC(C)(C)C)s2)nc1C", "IGROV-1", "> 100 µM (inactive)"],
  ["O=[N+]([O-])c1cc2ncc(-c3ccccc3)c(O)c2cc1/C(Cl)=C/c1ccccc1", "IGROV-1", "5.83 µM (inactive)"],
  ["CCOC(=O)C(C(=O)c1ccccc1-c1ccccc1C(=O)O)=P(c1ccccc1)(c1ccccc1)c1ccccc1", "IGROV-1", "20.6 µM (inactive)"],
  ["O=C(O)Cc1cccc2c(=O)c3cccc([N+](=O)[O-])c3oc12", "IGROV-1", "> 100 µM (inactive)"],
  ["CCOC(=O)C(NC(=O)CC)(Nc1cc(C)on1)C(F)(F)F (stereo not drawn)", "IGROV-1", "> 100 µM (inactive)"],
  ["CCCN(CCC)C(=S)Sc1nc(C)nc(N2CCN(c3nc(C)nc(SC(=S)N(CCC)CCC)c3[N+](=O)[O-])CC2)c1[N+](=O)[O-]", "IGROV-1", "11.4 µM (inactive)"],
  ["Nc1ccc(C(=O)N/C(=C\\c2cccc([N+](=O)[O-])c2)c2nc3c(O)nc(S)nc3[nH]2)cc1", "IGROV-1", "55.1 µM (inactive)"],
  ["CN(C)Cc1cc(/N=N/c2ccc(Cl)cc2)ccc1O", "IGROV-1", "15.8 µM (inactive)"],
  ["COC1(OC)N=C(N)C2(C#N)C(C)CC(=O)N(N(C)C)C12C#N (stereo not drawn)", "IGROV-1", "> 100 µM (inactive)"],
  ["CCOc1cc(NC(C)=O)ccc1C(=O)N/N=C/c1ccco1", "IGROV-1", "94 µM (inactive)"],
  ["C[C@]12CCC3[C@@H](CC[C@@H]4c5nonc5CC[C@]34C)C1CC[C@@H]2O (stereo partly drawn)", "IGROV-1", "41.8 µM (inactive)"],
  ["CN1CCCN2CCN(C)CCN(CC1)CC2", "IGROV-1", "> 100 µM (inactive)"],
  ["N#Cc1ccc(Sc2ccccc2)cc1C#N", "IGROV-1", "> 100 µM (inactive)"],
  ["COc1nc2c(nc(N)n2C2OC(CO)C(O)C(O)C2O)c(=O)[nH]1 (stereo not drawn)", "IGROV-1", "> 100 µM (inactive)"],
  ["COc1ccc(C(OCC2OC(n3ccc(NC(=O)c4ccccc4)nc3=O)C(O)C2O)(c2ccccc2)c2ccccc2)cc1 (stereo not drawn)", "IGROV-1", "2.08 µM (inactive)"],
  ["C[C@]12C=CC(=O)C=C1CC[C@@H]1[C@@H]2CC[C@]2(C)OC(=O)CC[C@@H]12", "IGROV-1", "453 µM (inactive)"],
  ["NC(=O)CCSC(CC(=O)c1ccc(Cl)cc1)c1ccc(Cl)cc1 (stereo not drawn)", "IGROV-1", "16.2 µM (inactive)"],
  ["Cc1oc2c(cc(O)c3cc(O)ccc32)c2cccc1-2", "IGROV-1", "> 100 µM (inactive)"],
  ["N#Cc1nc(Nc2cccc3ccccc23)sc1N", "IGROV-1", "45.1 µM (inactive)"],
  ["COc1ccccc1C(C1=C(O)COC1=O)c1cc2c(cc1OC(C)=O)OCO2 (stereo not drawn)", "IGROV-1", "> 100 µM (inactive)"],
  ["N#Cc1cc([N+](=O)[O-])ccc1NC(=O)C(=O)Nc1n[nH]c(N)n1", "IGROV-1", "> 100 µM (inactive)"],
  ["OC(c1ccccc1)(c1ccccc1)c1nccc2ccccc12", "IGROV-1", "40 µM (inactive)"],
  ["CCCCCCc1ccc(C(=O)NO)cc1", "IGROV-1", "24.5 µM (inactive)"],
  ["O=c1c2cc(Br)cc(Br)c2nc(CCCl)n1CCO", "IGROV-1", "75.9 µM (inactive)"],
  ["CCOC(=O)C/C(N)=C(\\C#N)C(=O)OCC", "IGROV-1", "> 100 µM (inactive)"],
  ["C/C=C1\\CN2CCC34c5ccccc5N(C)C35OCC4(C(=O)OC)C1CC25 (stereo not drawn)", "IGROV-1", "41.6 µM (inactive)"],
  ["NC(=O)/C(=N\\NC(=O)C[n+]1ccccc1)C1NC(=O)NC1=O (stereo not drawn)", "IGROV-1", "> 100 µM (inactive)"],
  ["COc1cc2c(cc1OC)C1[C@@H](c3ccccc3)OCN1CC2 (stereo partly drawn)", "IGROV-1", "> 100 µM (inactive)"],
  ["O=C(COc1ccccc1Cl)N1N=C(c2ccc(Cl)cc2)CC1(O)c1ccccc1 (stereo not drawn)", "IGROV-1", "> 100 µM (inactive)"]
]}

src = ChEMBL document CHEMBL1201862
